Consider molecules characterized by their pIC50 with guinea pig liver transglutaminase (Cavia cutleri, UniProt P08587).
Sequence (P08587 2-690): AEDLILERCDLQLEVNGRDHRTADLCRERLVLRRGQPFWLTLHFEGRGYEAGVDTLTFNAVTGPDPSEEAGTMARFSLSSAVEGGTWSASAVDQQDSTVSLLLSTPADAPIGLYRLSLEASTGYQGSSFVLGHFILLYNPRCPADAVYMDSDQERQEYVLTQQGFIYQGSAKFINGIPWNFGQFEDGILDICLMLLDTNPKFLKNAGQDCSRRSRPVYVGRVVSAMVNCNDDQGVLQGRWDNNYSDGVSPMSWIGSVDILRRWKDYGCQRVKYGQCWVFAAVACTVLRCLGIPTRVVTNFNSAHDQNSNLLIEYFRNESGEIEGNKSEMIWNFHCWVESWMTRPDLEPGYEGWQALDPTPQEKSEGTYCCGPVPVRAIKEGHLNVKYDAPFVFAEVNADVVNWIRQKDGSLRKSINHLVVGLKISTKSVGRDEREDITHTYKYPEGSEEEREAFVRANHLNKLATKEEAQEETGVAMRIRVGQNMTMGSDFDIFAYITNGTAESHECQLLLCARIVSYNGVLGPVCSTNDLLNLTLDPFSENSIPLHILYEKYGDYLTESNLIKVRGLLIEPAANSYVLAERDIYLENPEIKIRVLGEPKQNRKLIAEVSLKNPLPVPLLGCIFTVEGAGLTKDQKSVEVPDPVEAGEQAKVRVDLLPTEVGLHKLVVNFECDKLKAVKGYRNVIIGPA
// field semantics: pIC50 = negative decimal log of concentration (mol/L)

# annotated cases, reported pIC50 shown
CC(N)C12CC3CC(CC(C3)C1)C2 (stereo not drawn)
2.30
NC12CC3CC(CC(C3)C1)C2
1.70

API: the following record is the query input.
stdin: # lookup: pIC50 of CN(C)c1cccc2c(S(=O)(=O)NCCCCCN)cccc12
stdout: 3.70
